Where these numbers come from: the RNAGym collection of RNA variant scans (doi:10.1002/anie.201605470)

B1: Osa-1-4 twister ribozyme (parent)
chain: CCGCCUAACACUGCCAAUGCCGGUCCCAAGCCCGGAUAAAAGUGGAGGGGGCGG

- Variants of: B1
- run-description: self-cleavage, relative activity (ratio to wild type); higher = more cleavage; co-transcriptional
readout-kind: self-cleavage
Lab note: jot the number down without any unit.

Qu. Give its self-cleavage value. Item: A16G U18G
Ans. 0.83

Qu. Give its self-cleavage value. Item: A7G C11U
Ans. 0.15

Qu. Give its self-cleavage value. Item: A28G C26A
Ans. 0.03

Qu. Give its self-cleavage value. Item: G48C U12G
Ans. 0.07

Qu. Give its self-cleavage value. Item: C33U G45A
Ans. 0.08

Qu. Give its self-cleavage value. Item: G42C G48A
Ans. 0.05

Qu. Give its self-cleavage value. Item: A46U G35U
Ans. 0.09

Qu. Give its self-cleavage value. Item: A39G A46U
Ans. 0.09

Qu. Give its self-cleavage value. Item: A46G U37G
Ans. 0.09

Qu. Give its self-cleavage value. Item: U37A U43C
Ans. 0.44

Qu. Give its self-cleavage value. Item: A7U C20U
Ans. 0.09

Qu. Give its self-cleavage value. Item: G45A G49U
Ans. 0.04

Qu. Give its self-cleavage value. Item: C27G C33U
Ans. 0.05

Qu. Give its self-cleavage value. Item: A38U G47U
Ans. 0.19

Qu. Give its self-cleavage value. Item: G45C U12A
Ans. 0.06

Qu. Give its self-cleavage value. Item: G13C U12C
Ans. 0.03

Qu. Give its self-cleavage value. Item: C15A C25U
Ans. 0.08

Qu. Give its self-cleavage value. Item: C9G G13U
Ans. 0.03

Qu. Give its self-cleavage value. Item: A40G G13A
Ans. 0.06

Qu. Give its self-cleavage value. Item: C52U G48C
Ans. 0.11

Qu. Give its self-cleavage value. Item: A29U G47C
Ans. 0.03

Qu. Give its self-cleavage value. Item: C27A C9U
Ans. 0.07
